Kindly supply the reported inhibition values for the records listed here.
Molecular target: Interleukin-1 receptor-associated kinase 4 (Homo sapiens) (UniProt Q9NWZ3);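 further: mean inhibition values, from the GSK PKIS dataset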
Sequence (whole entry): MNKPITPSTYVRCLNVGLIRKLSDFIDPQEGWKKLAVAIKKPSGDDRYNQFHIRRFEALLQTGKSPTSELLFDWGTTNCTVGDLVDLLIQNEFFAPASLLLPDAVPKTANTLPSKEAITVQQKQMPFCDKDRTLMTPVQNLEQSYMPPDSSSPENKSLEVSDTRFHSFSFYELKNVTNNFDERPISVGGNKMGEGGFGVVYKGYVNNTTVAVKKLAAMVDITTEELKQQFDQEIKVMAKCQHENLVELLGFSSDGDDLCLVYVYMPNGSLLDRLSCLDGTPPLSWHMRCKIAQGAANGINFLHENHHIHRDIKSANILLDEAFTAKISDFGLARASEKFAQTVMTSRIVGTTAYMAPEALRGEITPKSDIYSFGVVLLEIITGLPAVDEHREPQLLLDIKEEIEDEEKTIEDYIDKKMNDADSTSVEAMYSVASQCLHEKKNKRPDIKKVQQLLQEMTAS
Details: at 1 µM
# value in %; strip the unit string

Value of inhibition reported for the compound `Fc1ccc(-c2ncn(C3CCNCC3)c2-c2ccnc(Oc3ccc(Oc4ccccc4)cc3)n2)cc1` is 1.78

Value of inhibition reported for the compound `O=C(Nc1n[nH]c2cc(-c3ccccc3)ccc12)C1CC1` is 2.04

Value of inhibition reported for the compound `Fc1ccc(-c2ncn(CCCN3CCOCC3)c2-c2ccncc2)cc1` is -0.71

Value of inhibition reported for the compound `Fc1ccc(-c2c(-c3ccncc3)nc3n2CCS3)cc1` is 1.7

Value of inhibition reported for the compound Nc1nccc(-c2c(-c3ccc(F)cc3)ncn2C2CCC(O)CC2)n1 (centres undefined) is -1

Value of inhibition reported for the compound `COc1cc(Nc2ncc(-c3ccccc3)o2)cc(OC)c1OC` is 0.55

Value of inhibition reported for the compound `N#Cc1ccc(Oc2nccc(-c3c(-c4ccc(F)cc4)ncn3C3CCNCC3)n2)cc1` is 2.43

Value of inhibition reported for the compound `FC(F)(F)c1cccc(Nc2nccc(-c3cnn4nc(-c5ccccc5)ccc34)n2)c1` is 0.27

Value of inhibition reported for the compound `Cc1ccc(C(=O)NC2CCC2)cc1-c1ccc(C(=O)NCC2CC2)cc1` is 1.51

Value of inhibition reported for the compound `Cc1ccc(C(=O)NC(C)C)cc1-c1ccc(C(=O)NCC2CC2)cc1` is -0.58

Value of inhibition reported for the compound `O=C(NCC1CC1)c1ccc(-c2cccc(C(=O)NC3CC3)c2)cc1` is 0.85

Value of inhibition reported for the compound `O=C(Nc1n[nH]c2nc(-c3ccco3)ccc12)C1CC1` is 0.56

Value of inhibition reported for the compound `CN(c1ccc(NC(=O)Nc2c(Cl)cccc2Cl)cc1)c1ccnc(Nc2cccc(CS(C)(=O)=O)c2)n1` is 1.26

Value of inhibition reported for the compound `CN(C)CCOc1ccc(-c2cc(-c3ccc4c(c3)CCC4=NO)c(-c3ccncc3)o2)cc1` is 0.12

Value of inhibition reported for the compound `CS(=O)(=O)CCNCc1cc(-c2cc3c(Nc4ccc(OCc5cccc(F)c5)c(Cl)c4)ncnc3s2)cs1` is 3.31

Value of inhibition reported for the compound `COc1cc(Nc2ncc3c(C)nc(-c4cccc(C(F)(F)F)c4)n3n2)cc(OC)c1OC` is 1.37

Value of inhibition reported for the compound `CS(=O)(=O)CCNCc1ccc(-c2ccc3ncnc(Nc4ccc(OCc5ccccc5)c(Br)c4)c3c2)o1` is 1.52

Value of inhibition reported for the compound `NCc1ccc(-n2c(-c3nonc3N)nc3cnccc32)cc1` is 2.35

Value of inhibition reported for the compound `COc1ccc(C2=C(N3CCc4ccccc43)C(=O)NC2=O)cc1` is 2.48

Value of inhibition reported for the compound `O=C(Nc1ccc(Oc2ccc3[nH]c(NC(=O)c4ccccc4)nc3c2)cc1)Nc1cc(C(F)(F)F)ccc1F` is 2.09

Value of inhibition reported for the compound `COc1cc(N2CCN(C(C)C)CC2)ccc1Nc1nc(Nc2ccc(F)cc2C(=O)NC[C@@H](O)CO)c2cc[nH]c2n1` is 2.5

Value of inhibition reported for the compound `c1ccc(Oc2ccc(Nc3ncc(-c4ccccc4)o3)cc2)cc1` is 0.97

Value of inhibition reported for the compound `NS(=O)(=O)c1ccc(N/N=C2\C(=O)Nc3ccc(-c4cnco4)cc32)cc1` is 1.08

Value of inhibition reported for the compound `COc1cc2ncn(-c3cc(OCCc4ccccc4)c(C(N)=O)s3)c2cc1OC` is 0.72
